# assay-target: T1, recombinant ILT2 (human) (human, UniProt Q8NHL6 24-461)
# T1 construct: also called recombinant ILT2 peptide; ILT2 protein
# T1 sequence (Q8NHL6 24-461 limits assumed): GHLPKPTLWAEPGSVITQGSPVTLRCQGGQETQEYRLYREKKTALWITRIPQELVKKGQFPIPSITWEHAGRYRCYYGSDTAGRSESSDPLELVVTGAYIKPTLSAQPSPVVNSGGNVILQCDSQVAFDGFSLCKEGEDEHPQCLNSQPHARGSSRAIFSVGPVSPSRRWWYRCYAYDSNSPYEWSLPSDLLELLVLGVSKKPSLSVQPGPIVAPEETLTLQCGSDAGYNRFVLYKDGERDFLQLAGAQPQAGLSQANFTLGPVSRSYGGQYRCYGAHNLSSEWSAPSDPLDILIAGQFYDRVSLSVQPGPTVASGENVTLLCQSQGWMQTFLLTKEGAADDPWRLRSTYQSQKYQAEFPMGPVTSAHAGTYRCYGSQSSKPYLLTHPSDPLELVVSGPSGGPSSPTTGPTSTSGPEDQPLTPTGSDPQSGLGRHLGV
# assay-protocol: SPR (Biacore T200), HEK EBNA supernatants on recombinant ILT2 peptide
Each item that follows carries a reported koff.
All answers are understood in s⁻¹, so give the number only.

Sample records with koff:
>  <binder>
15G8-23 (humanized 15G8, VH2/Vk3) (antibody, human IgG4 S228P, kappa, V domains shown, Humanized IgG4 (S228P, L235E), kappa) VH: DVQLQGSGPGLVKPSETLSLTCSVTGYSITSGYYWNWIRQFPGKKLEWMGYISYDGSNNYNPSLKNRITISRDTSKNQFSLKLSSVTAADTATYYCAHGYSYYYAMDAWGQGTTVTVSS VL: DIQMTQSPSSLSASVGDRVTITCRTSQDISNYLNWYQQKPGKAVKLLISYTSRLHSGVPSRFSGSGSGTDYTLTISSLQPEDFATYYCQQGNTLPTFGQGTKLEIKR

>  <koff [s⁻¹]>
0.0076

$$$$
>  <binder>
humanized 15G8 VH2/Vk1 (antibody, IgG4, V domains shown, Humanized IgG4 (S228P, L235E), kappa; tested as supernatant of transiently transfected HEK EBNA cells) VH: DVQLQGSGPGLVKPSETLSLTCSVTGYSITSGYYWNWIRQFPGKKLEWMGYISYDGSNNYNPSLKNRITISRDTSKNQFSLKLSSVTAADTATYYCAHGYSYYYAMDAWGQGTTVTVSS VL: DIQMTQSTSSLSASVGDRVTITCRTSQDISNYLNWYQQKPGKAVKLLISYTSRLHSGVPSRFSGSGSGTDYTLTISSLQQEDFATYFCQQGNTLPTFGQGTKLEIK

>  <koff [s⁻¹]>
0.00728

$$$$
>  <binder>
humanized 15G8 VH1/Vk1 (antibody, IgG4, V domains shown, Humanized IgG4 (S228P, L235E), kappa; tested as supernatant of transiently transfected HEK EBNA cells) VH: DVQLQGSGPGLVKPSETLSLTCSVTGYSITSGYYWNWIRQFPGKKLEWMGYISYDGSNNYNPSLKNRITISRDTSKNQFSLKLNSVTAADTATYYCAHGYSYYYAMDAWGQGTSVTVSS VL: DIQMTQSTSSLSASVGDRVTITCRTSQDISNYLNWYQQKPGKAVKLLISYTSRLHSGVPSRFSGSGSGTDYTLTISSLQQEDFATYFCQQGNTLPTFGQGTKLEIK

>  <koff [s⁻¹]>
0.00931

$$$$
>  <binder>
chimeric 15G8 antibody (antibody, V domains shown, Chimeric form of murine 15G8) VH: DVQLQGSGPGLVKPSQSLSLTCSVTGYSITSGYYWNWIRQFPGNKLEWMGYISYDGSNNYNPSLKNRISITRDTSKNQFFLKLNSVTSEDTATYYCAHGYSYYYAMDCWGQGTSVTVSS VL: DIQMTQTTSSLSASLGDRVTISCRTSQDISNYLNWYQQKPDGTVKLLISYTSRLHSGVPSRFSGSGSGTDYSLTISNLEQEDIATYFCQQGNTLPTFGSGTKLEIK

>  <koff [s⁻¹]>
0.0102

$$$$
>  <binder>
humanized 15G8 VH5/Vk1 (antibody, IgG4, V domains shown, Humanized IgG4 (S228P, L235E), kappa; tested as supernatant of transiently transfected HEK EBNA cells) VH: QVQLQGSGPGLVKPSETLSLTCTVTGYSITSGYYWNWIRQPPGKGLEWIGYISYDGSNNYNPSLKNRVTISRDTSKNQFSLKLSSVTAADTATYYCAHGYSYYYAMDAWGQGTTVTVSS VL: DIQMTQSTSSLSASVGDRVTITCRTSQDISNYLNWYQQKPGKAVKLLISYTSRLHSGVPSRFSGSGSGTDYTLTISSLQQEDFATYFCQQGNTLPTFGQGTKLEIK

>  <koff [s⁻¹]>
0.00994

$$$$

Shift focus to the following entry.
Lab book: koff of humanized 15G8 VH2/Vk4 (antibody, IgG4, V domains shown, Humanized IgG4 (S228P, L235E), kappa; tested as supernatant of transiently transfected HEK EBNA cells) VH: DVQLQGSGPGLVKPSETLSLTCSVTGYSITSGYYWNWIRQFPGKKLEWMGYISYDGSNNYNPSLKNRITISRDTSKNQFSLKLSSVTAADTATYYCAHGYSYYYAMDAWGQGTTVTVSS VL: DIQMTQSPSSLSASVGDRVTITCRTSQDISNYLNWYQQKPGKAPKLLISYTSRLHSGVPSRFSGSGSGTDYTLTISSLQPEDFATYFCQQGNTLPTFGQGTKLEIK noted as 0.00789

Entry source: patent US20220048991A1
